Where do the numbers come from? From patent US9096549B2.

Biological target: HDAC3 (Homo sapiens (Human))
Test: HDAC enzyme assay, HDAC3
Format: biochemical
Conditions: 24 hours pre-incubation with enzyme; tripeptide substrate 3 at Km
property name: IC50 (nM)

Nc1cc(F)ccc1NC(=O)c1ccc2c(cnn2CCN2CCOCC2)c1 ... 320
Nc1cc(F)ccc1NC(=O)c1cnc2c(C3CC3)c(N3CCNCC3)ccc2c1 ... 57
Nc1cc(F)ccc1NC(=O)c1cnc2cc(N3CCNCC3)ccc2c1 ... 470
Nc1cc(F)ccc1NC(=O)c1ccc2c(c1)CC(=O)N2 ... 269
Nc1ccccc1NC(=O)c1cc2ccc(N3CCNCC3)c(C3CC3)c2cn1 ... 33
Nc1ccc(F)cc1NC(=O)c1ccc2nc(N3CCNCC3)cnc2c1 ... 235

(I) Nc1cc(F)ccc1NC(=O)c1ccc2[nH]cnc2c1
(II) Nc1ccccc1NC(=O)c1cc2ccc(N3CCNCC3)cc2cn1
Req: Looking at recorded values for IC50, does I or II come in lower? Field: selected label. Fill in the label of the entry you choose.
Resp: II

====

Molecular target: HDAC1 (Homo sapiens (Human))
Assay: HDAC enzyme assay, HDAC1
Type: biochemical
Details: 24 hours pre-incubation with enzyme; tripeptide substrate 3 at Km
property name: IC50 (nM)

Observe how each entry below is paired with its result.
Nc1ccccc1NC(=O)c1cc2ccc(N3CCNCC3)c(C3CC3)c2cn1 [Compound L] ... 228
CN1CCN(c2ccc3cc(C(=O)Nc4ccc(F)cc4N)cnc3c2C2CC2)CC1 [Compound E] ... 1610
Nc1ccc(F)cc1NC(=O)c1cnc2c(C3CC3)c(N3CCNCC3)ccc2c1 [Compound A] ... 468
Nc1ccccc1NC(=O)c1cnc2c(C3CC3)c(N3CCNCC3)ccc2c1 [Compound B] ... 355

(P) Nc1cc(F)ccc1NC(=O)c1cc2ccc(N3CCNCC3)c(C3CC3)c2cn1 [Compound M]
(Q) Nc1ccccc1NC(=O)c1cc2ccc(N3CCNCC3)cc2cn1 [Compound K]
Req: Input pair: P , Q . Output: entry with lower IC50. API: response body contains the label of the selected item.
Resp: Q
(Q: 299 nM, P: 462 nM)

====

Target: HDAC3 (Homo sapiens (Human), UniProt O15379)
Sequence (O15379 whole entry): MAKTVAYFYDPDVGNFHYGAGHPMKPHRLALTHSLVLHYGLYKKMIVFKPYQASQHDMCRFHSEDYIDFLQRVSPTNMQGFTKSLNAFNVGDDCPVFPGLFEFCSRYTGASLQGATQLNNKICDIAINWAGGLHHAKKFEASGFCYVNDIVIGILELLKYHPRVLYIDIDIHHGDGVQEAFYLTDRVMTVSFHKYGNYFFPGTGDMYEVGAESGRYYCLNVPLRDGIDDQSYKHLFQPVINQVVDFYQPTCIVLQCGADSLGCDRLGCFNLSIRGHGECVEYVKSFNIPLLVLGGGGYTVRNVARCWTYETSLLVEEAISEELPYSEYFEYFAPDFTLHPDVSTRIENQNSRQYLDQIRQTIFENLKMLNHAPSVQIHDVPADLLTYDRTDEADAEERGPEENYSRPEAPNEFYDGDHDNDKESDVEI
Sequence (Q9Y618 395-489 partner): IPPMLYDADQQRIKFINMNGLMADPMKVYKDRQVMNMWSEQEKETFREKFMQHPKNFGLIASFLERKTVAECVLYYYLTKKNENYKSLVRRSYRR
Assay: HDAC enzyme assay, HDAC3
Type: biochemical
Details: 24 hours pre-incubation with enzyme; tripeptide substrate 3 at Km
property name: IC50 (nM)

(P) Nc1ccc(F)cc1NC(=O)c1cnc2c(C3CC3)c(N3CCNCC3)ccc2c1 [Compound A]
(Q) Nc1ccc(F)cc1NC(=O)c1ccc2nc(N3CCNCC3)ccc2c1 [Compound R]
(R) Nc1cc(F)ccc1NC(=O)c1cnc2cc(N3CCNCC3)ccc2n1 [Compound N]
Req: Please list these molecules in decreasing order of IC50. Reply with the labels, ordered as the question asks.
Resp: R, Q, P
(R: 1300 nM, Q: 315 nM, P: 59 nM)

(I) CN1CCN(c2ccc3cc(C(=O)Nc4ccc(F)cc4N)cnc3c2C2CC2)CC1 [Compound E]
(II) Nc1ccc(F)cc1NC(=O)c1cnc2cc(N3CCNCC3)ccc2c1 [Compound Q]
Req: Given the listed items, does I or II have the lesser reported IC50? Give the label of your selection.
Resp: I
(I: 68 nM, II: 308 nM)

====

Molecular target: HDAC2 (Homo sapiens (Human))
Sequence (Q92769 whole entry): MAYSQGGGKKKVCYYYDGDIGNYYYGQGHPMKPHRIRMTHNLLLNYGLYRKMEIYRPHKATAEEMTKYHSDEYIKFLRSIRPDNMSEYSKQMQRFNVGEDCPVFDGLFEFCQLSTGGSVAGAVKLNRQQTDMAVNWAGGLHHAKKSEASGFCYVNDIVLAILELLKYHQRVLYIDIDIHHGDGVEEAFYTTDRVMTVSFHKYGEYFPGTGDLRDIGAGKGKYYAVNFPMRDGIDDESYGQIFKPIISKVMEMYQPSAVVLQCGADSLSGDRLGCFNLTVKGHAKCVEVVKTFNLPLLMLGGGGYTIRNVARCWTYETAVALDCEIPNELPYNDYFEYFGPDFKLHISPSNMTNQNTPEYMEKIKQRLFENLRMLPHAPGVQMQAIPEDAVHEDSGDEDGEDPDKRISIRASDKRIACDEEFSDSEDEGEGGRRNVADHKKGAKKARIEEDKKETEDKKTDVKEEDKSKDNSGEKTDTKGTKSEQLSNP
Assay: HDAC enzyme assay, HDAC2
Format: biochemical
Conditions: 24 hours pre-incubation with enzyme; tripeptide substrate 3 at Km
property name: IC50 (nM)

Record excerpt, results attached:
Nc1ccccc1NC(=O)c1cc2ccc(N3CCNCC3)cc2cn1 ... 271
Nc1ccccc1NC(=O)c1cnc2c(C3CC3)c(N3CCNCC3)ccc2c1 ... 372
Nc1ccc(F)cc1NC(=O)c1cnc2c(C3CC3)c(N3CCNCC3)ccc2c1 ... 455
Nc1cc(F)ccc1NC(=O)c1cc2ccc(N3CCNCC3)c(C3CC3)c2cn1 ... 228
Nc1cc(F)ccc1NC(=O)c1ccc2c(cnn2CCN2CCOCC2)c1 ... 1780

(P) Nc1ccccc1NC(=O)c1cc2ccc(N3CCNCC3)c(C3CC3)c2cn1
(Q) Nc1ccc(F)cc1NC(=O)c1ccc2nc(N3CCNCC3)ccc2c1
(R) Nc1cc(F)ccc1NC(=O)c1cnc2c(C3CC3)c(N3CCNCC3)ccc2c1
Req: Rank ascending by IC50. Write the labels out in the order the request specifies.
Resp: P, R, Q

(a) CN1CCN(c2ccc3cc(C(=O)Nc4ccc(F)cc4N)cnc3c2C2CC2)CC1
(b) Nc1cc(F)ccc1NC(=O)c1cnc2c(ccn2CCN2CCOCC2)c1
Req: Please indicate which has the smaller reported IC50: a , or b . Kindly state the label of the option you pick.
Resp: a

====

Target: HDAC1 (Homo sapiens (Human), UniProt Q13547)
Sequence (Q13547 whole entry): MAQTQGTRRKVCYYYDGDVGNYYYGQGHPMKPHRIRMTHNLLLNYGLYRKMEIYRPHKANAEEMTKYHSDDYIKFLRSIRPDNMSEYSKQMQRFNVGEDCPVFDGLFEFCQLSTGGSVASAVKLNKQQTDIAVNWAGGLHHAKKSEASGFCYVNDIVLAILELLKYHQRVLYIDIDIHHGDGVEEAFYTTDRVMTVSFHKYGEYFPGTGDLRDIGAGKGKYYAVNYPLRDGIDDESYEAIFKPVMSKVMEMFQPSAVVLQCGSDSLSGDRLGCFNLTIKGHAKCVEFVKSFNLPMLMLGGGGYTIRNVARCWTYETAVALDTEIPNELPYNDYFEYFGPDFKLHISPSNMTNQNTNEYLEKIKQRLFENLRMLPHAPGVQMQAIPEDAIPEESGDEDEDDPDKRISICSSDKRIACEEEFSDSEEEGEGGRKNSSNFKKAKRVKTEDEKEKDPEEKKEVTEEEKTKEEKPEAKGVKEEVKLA
Assay: HDAC enzyme assay, HDAC1
Format: biochemical
Conditions: 24 hours pre-incubation with enzyme; tripeptide substrate 3 at Km
Each entry below carries its reported IC50.

Nc1ccc(F)cc1NC(=O)c1ccc2nc(N3CCNCC3)ccc2c1 ... > 2000 nM
Nc1ccc(F)cc1NC(=O)c1ccc2nc(N3CCNCC3)cnc2c1 ... > 2000 nM
Nc1ccc(F)cc1NC(=O)c1cnc2cc(N3CCNCC3)ccc2n1 ... > 2000 nM
Nc1cc(F)ccc1NC(=O)c1ccc2c(cnn2CCN2CCOCC2)c1 ... > 2000 nM
Nc1ccc(F)cc1NC(=O)c1cnc2cc(N3CCNCC3)ccc2c1 ... > 2000 nM
Nc1cc(F)ccc1NC(=O)c1cnc2c(C3CC3)c(N3CCNCC3)ccc2c1 ... > 2000 nM

Please examine the following record next.
Req: System HDAC1 (Homo sapiens (Human), UniProt Q13547). Read-out IC50. Item Nc1cc(F)ccc1NC(=O)c1cnc2c(ccn2CCN2CCOCC2)c1 . Report value.
Resp: > 2000 nM

====

Target: HDAC3 (Homo sapiens (Human))
Assay: HDAC enzyme assay, HDAC3
Type: biochemical
Details: 24 hours pre-incubation with enzyme; tripeptide substrate 3 at Km
property name: IC50 (nM)

Answered examples (2):
Nc1ccc(F)cc1NC(=O)c1cnc2cc(N3CCNCC3)ccc2n1 ... 675
Nc1cc(F)ccc1NC(=O)c1cc2ccc(N3CCNCC3)c(C3CC3)c2cn1 ... 30

(P) Nc1ccccc1NC(=O)c1cnc2c(C3CC3)c(N3CCNCC3)ccc2c1
(Q) Nc1cc(F)ccc1NC(=O)c1cnc2c(ccn2CCN2CCOCC2)c1
Req: Compare IC50: is it lower for P or for Q ? Pick one; state its label.
Resp: P
(P: 53 nM, Q: 193 nM)

====

Molecular target: HDAC2 (Homo sapiens (Human))
Assay: HDAC enzyme assay, HDAC2
Type: biochemical
Conditions: 24 hours pre-incubation with enzyme; tripeptide substrate 3 at Km
Below is a list of entries, each paired with its recorded IC50 value.

// worked examples, IC50 included
Nc1cc(F)ccc1NC(=O)c1ccc2c(c1)CC(=O)N2 [Compound C] ... > 2000 nM
Nc1ccc(F)cc1NC(=O)c1ccc2nc(N3CCNCC3)cnc2c1 [Compound P] ... 1100 nM
Nc1cc(F)ccc1NC(=O)c1ccc2[nH]cnc2c1 [Compound D] ... > 2000 nM
Nc1ccc(F)cc1NC(=O)c1cnc2cc(N3CCNCC3)ccc2c1 [Compound Q] ... > 2000 nM
Nc1cc(F)ccc1NC(=O)c1cnc2cc(N3CCNCC3)ccc2c1 [Compound J] ... > 2000 nM

Req: For the compound Nc1ccc(F)cc1NC(=O)c1cnc2cc(N3CCNCC3)ccc2n1 [Compound O] , give its measured IC50 value.
Resp: > 2000 nM
